Data provenance is patent US8058475B2.

target: human μ-opiate receptor (Homo sapiens, UniProt P35372); experiment: Affinity for the human μ-opiate receptor ([3H]-naloxone displacement, SPA, CHO-K1 membrane preparation); format: binding; settings: read-out: μ-Opioid receptor, Ki
Sequence (P35372 whole entry): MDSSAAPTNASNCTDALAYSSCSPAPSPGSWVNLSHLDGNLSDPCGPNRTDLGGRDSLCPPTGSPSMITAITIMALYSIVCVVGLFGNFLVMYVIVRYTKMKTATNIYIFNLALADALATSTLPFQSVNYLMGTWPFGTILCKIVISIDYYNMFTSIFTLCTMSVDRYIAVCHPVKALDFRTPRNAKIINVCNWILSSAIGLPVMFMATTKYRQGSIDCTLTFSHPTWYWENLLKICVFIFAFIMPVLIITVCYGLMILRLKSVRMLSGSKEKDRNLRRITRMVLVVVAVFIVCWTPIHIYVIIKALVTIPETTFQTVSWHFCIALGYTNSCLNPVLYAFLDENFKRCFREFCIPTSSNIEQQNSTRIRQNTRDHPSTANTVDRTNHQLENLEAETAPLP
ENDPOINT LABEL: Ki (µM)
Respond with the bare value in µM.

Record CN(C)C(c1ccc(Cl)cc1)C1CCC(CNC(=O)c2ccccc2Cl)CC1 (centres unmarked) [compound 354] , field Ki: 0.053

Record Cc1cc(C(=O)NC2CCC(C(c3ccccc3)N(C)C)CC2)c(C)o1 (centres unmarked) [compound 279] , field Ki: 0.14

Record CC(Oc1ccccc1)C(=O)NC1CCC(C(c2cccc(F)c2)N(C)C)CC1 (single isomer, unassigned) [compound 215] , field Ki: 0.034

Record COc1ccccc1C(=O)NCCC1CCC(C(c2ccc(F)cc2)N(C)C)CC1 (centres unmarked) [compound 432] , field Ki: 0.018

Record CN(C)C(c1ccccc1)C1CCC(NC(=O)c2ccc(Cl)c(Cl)c2)CC1 (centres unmarked) [compound 189] , field Ki: 0.011

Record CN(C)C(c1cccs1)C1CCC(NC(=O)Cc2ccc(Cl)cc2)CC1 (centres unmarked) [compound 219] , field Ki: 0.056

Record Cc1c(S(=O)(=O)c2ccc(Cl)cc2)csc1C(=O)NC1CCC(C(c2ccccc2)N(C)C)CC1 (centres unmarked) [compound 253] , field Ki: 0.079

Record CN(C)C(c1ccccc1)C1CCC(NC(=O)c2cc(F)c(F)cc2F)CC1 (centres unmarked) [compound 196] , field Ki: 0.019

Record CN(C)C(c1ccccc1)C1CCC(NC(=O)C2CCCCC2)CC1 (centres unmarked) [compound 272] , field Ki: 0.09

Record CN(C)C(c1ccccc1)C1CCC(CCNC(=O)c2c(F)cccc2F)CC1 (centres unmarked) [compound 461] , field Ki: 0.017

Record Cc1cccc(C(=O)NCCC2CCC(C(c3cccc(F)c3)N(C)C)CC2)c1 (centres unmarked) [compound 412] , field Ki: 0.032

Record CN(C)C(c1ccccc1)C1CCC(NC(=O)c2cncc(Br)c2)CC1 (centres unmarked) [compound 235] , field Ki: 0.061

Record CN(C)C(c1cccc(F)c1)C1CCC(CNC(=O)CC(C)(C)C)CC1 (centres unmarked) [compound 295] , field Ki: 0.0073

Record CC(=O)N(C(C)Cc1c[nH]c2ccccc12)C1CCC(C(c2ccccc2)N(C)C)CC1 (centres unmarked) [compound 178] , field Ki: 0.0012

Record CCOC(=O)C=CC1CCC(C(c2cccc(F)c2)N(C)C)CC1 (centres unmarked) [compound 138] , field Ki: 0.092

Record Cc1oc(-c2ccccc2)cc1C(=O)NCC1CCC(C(c2ccc(Cl)cc2)N(C)C)CC1 (centres unmarked) [compound 330] , field Ki: 0.039

Record CN(C)C(c1ccc(Cl)cc1)C1CCC(CNC(=O)c2ccccc2Br)CC1 (centres unmarked) [compound 394] , field Ki: 0.048

----------
molecular target: human μ-opiate receptor (Homo sapiens); assay: Affinity for the human μ-opiate receptor ([3H]-naloxone displacement, SPA, CHO-K1 membrane preparation); type: binding; conditions: read-out: μ-Opioid receptor, Ki
ENDPOINT LABEL: Ki (nM)
Respond with the bare value in nM.

Record CCSc1ncccc1C(=O)NCC1CCC(C(c2cccc(F)c2)N(C)C)CC1 (centres unmarked) [compound 388] , field Ki: 36

Record CCOC(=O)CCC1CCC(C(c2ccc(F)cc2)N(C)C)CC1 (centres unmarked) [compound 136] , field Ki: 230

Record CN(C)C(c1ccccc1)C1CCC(CNC(=O)Cc2ccc(Cl)cc2)CC1 (centres unmarked) [compound 324] , field Ki: 22

Record CN(C)C(c1ccccc1)C1CCC(CNC(=O)C2(c3ccc(Cl)cc3)CCCC2)CC1 (centres unmarked) [compound 339] , field Ki: 25

Record CN(C)C(c1ccccc1)C1CCC(NC(=O)c2cccs2)CC1 (single isomer, unassigned) [compound 249] , field Ki: 64

Record CC(C)S(=O)(=O)c1csc(C(=O)NCC2CCC(C(c3cccs3)N(C)C)CC2)c1Cl (centres unmarked) [compound 367] , field Ki: 110

Record CN(C)C(c1cccc(F)c1)C1CCC(NC(=O)c2cc(Cl)cc(Cl)c2)CC1 (centres unmarked) [compound 243] , field Ki: 25

Record CCSc1ncccc1C(=O)NCC1CCC(C(c2ccc(Cl)cc2)N(C)C)CC1 (centres unmarked) [compound 351] , field Ki: 58

Record CN(C)C(c1ccccc1)C1CCC(NC(=O)NC2CCCCC2)CC1 (centres unmarked) [compound 80] , field Ki: 20

Record CN(C)C(c1ccccc1)C1CCC(NC(=O)C23CC4CC(CC(C4)C2)C3)CC1 (centres unmarked) [compound 236] , field Ki: 63

Record CN(C)C(c1ccc(Cl)cc1)C1CCC(CNC(=O)c2csc3ccccc23)CC1 (single isomer, unassigned) [compound 372] , field Ki: 33

Record Cc1ccccc1C(=O)NCC1CCC(C(c2ccccc2)N(C)C)CC1 (single isomer, unassigned) [compound 325] , field Ki: 34

Record Cc1cccc(C(=O)NC2CCC(C(CCc3ccccc3)N(C)C)CC2)c1 (centres unmarked) [compound 248] , field Ki: 88

Record CN(C)C(c1ccc(F)cc1)C1CCC(NC(=O)c2ccc(F)c(Cl)c2)CC1 (centres unmarked) [compound 280] , field Ki: 310

Record Cc1oc(-c2ccc(Cl)cc2)cc1C(=O)NC1CCC(C(c2cccs2)N(C)C)CC1 (centres unmarked) [compound 229] , field Ki: 39

Record CN(C)C(CCc1ccccc1)C1CCC(NC(=O)c2cccc(Cl)c2)CC1 (centres unmarked) [compound 241] , field Ki: 68

Record CN(C)C(c1ccccc1)C1CCC(CNC(=O)c2c(Cl)cc(Cl)cc2Cl)CC1 (centres unmarked) [compound 338] , field Ki: 28
